Values compiled from patent US20140112930A1.

Assay System: T1, Monomeric hAng-2FD (human, UniProt O15123 282-496)
T1 construct: also called fibrinogen-like domain of human Ang2; Human Ang-2FD
T1 sequence: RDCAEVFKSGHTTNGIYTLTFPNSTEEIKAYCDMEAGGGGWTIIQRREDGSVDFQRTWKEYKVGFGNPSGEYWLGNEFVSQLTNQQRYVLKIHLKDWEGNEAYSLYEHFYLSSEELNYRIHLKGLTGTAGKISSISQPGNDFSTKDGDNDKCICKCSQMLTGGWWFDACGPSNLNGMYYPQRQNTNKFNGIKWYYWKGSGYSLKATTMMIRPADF
Test Name: SPR, captured Ab
Measurement Name: T1/2
Phrase the answer as number then unit, nothing more needed.

>  <Binder>
H1H696P (antibody, V domains shown) VH: QVQLVESGGGLVKPGGSLRLSCAASGFTFSDYYMSWIRQAPGKGLEWVSYISYTGRTIYYADSVKGRFTISRDNAKNSLYLQMNSLRAEDTAVYYCARDTDYGDFFDYWGQGTLVTVSS VL: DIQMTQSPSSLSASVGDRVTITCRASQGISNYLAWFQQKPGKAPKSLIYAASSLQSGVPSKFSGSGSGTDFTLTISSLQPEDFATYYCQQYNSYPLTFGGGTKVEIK

>  <T1/2>
0.2 min

$$$$
>  <Binder>
H1H730N (antibody, V domains shown) VH: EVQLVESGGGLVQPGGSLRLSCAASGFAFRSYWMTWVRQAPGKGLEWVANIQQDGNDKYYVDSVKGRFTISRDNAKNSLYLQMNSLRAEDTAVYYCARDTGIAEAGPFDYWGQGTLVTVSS VL: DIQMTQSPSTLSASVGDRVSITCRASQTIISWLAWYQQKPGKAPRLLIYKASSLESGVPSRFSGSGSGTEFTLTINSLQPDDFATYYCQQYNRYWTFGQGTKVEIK

>  <T1/2>
3.44 min

$$$$

We now examine a further binder.
Enquiry: Name the reported T1/2 value associated with the binder H1M732N (antibody, V domains shown) VH: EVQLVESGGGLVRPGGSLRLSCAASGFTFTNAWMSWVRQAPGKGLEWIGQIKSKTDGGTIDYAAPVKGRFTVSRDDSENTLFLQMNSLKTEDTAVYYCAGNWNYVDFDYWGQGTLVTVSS VL: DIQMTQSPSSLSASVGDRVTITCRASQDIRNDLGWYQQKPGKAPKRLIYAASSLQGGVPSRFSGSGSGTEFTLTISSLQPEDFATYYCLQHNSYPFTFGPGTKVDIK
Return: 18.7 min
